Data origin, for the record: patent US9765105B2

Attribute: MIC values, Pasteurella multocida CVCC399
- System: Pasteurella multocida CVCC399
- experiment: in vitro susceptibility, MIC by mini broth dilution
- Assay type: cell-based
- assay.conditions: strain CVCC399
measurement.kind: MIC values, Pasteurella multocida CVCC399

INSERT INTO results (molecule, result) VALUES
  ('C#CC=C(C)NC[C@]1(O)[C@H](C)O[C@@H](O[C@H]2[C@H](C)[C@@H](O[C@@H]3O[C@H](C)C[C@H](N(C)C)[C@H]3O)[C@](C)(O)C[C@@H](C)N(CCC)C[C@H](C)[C@@H](O)[C@](C)(O)[C@@H](CC)OC(=O)[C@@H]2C)C[C@@]1(C)OC', '1 ug/mi'),
  ('CCCN1C[C@H](C)[C@@H](O)[C@](C)(O)[C@@H](CC)OC(=O)[C@H](C)[C@@H](O[C@H]2C[C@@](C)(OC)[C@](O)(CNC(=O)C(F)(F)F)[C@H](C)O2)[C@H](C)[C@@H](O[C@@H]2O[C@H](C)C[C@H](N(C)C)[C@H]2O)[C@](C)(O)C[C@H]1C [syzx-215]', '0.5 ug/mi'),
  ('CCCN1C[C@H](C)[C@@H](O)[C@](C)(O)[C@@H](CC)OC(=O)[C@H](C)[C@@H](O[C@H]2C[C@@](C)(OC)[C@](O)(CNc3ccccc3F)[C@H](C)O2)[C@H](C)[C@@H](O[C@@H]2O[C@H](C)C[C@H](N(C)C)[C@H]2O)[C@](C)(O)C[C@H]1C', '1 ug/mi'),
  ('CCCN1C[C@H](C)[C@@H](O)[C@](C)(O)[C@@H](CC)OC(=O)[C@H](C)[C@@H](O[C@H]2C[C@@](C)(OC)[C@](O)(Cn3ccnc3C)[C@H](C)O2)[C@H](C)[C@@H](O[C@@H]2O[C@H](C)C[C@H](N(C)C)[C@H]2O)[C@](C)(O)C[C@H]1C', '4 ug/mi');

====

- System: Actinobacillus pleuropneumoniae CVCC262
- experiment: in vitro susceptibility, MIC by mini broth dilution
- Format: cell-based
- assay.conditions: strain CVCC262
measurement.kind: MIC values, Actinobacillus pleuropneumoniae CVCC262 (ug/mi)

INSERT INTO measurements (molecule, quantitative_readout) VALUES
  ('CCCN1C[C@H](C)[C@@H](O)[C@](C)(O)[C@@H](CC)OC(=O)[C@H](C)[C@@H](O[C@H]2C[C@@](C)(OC)[C@](O)(CNc3ccc(Cl)nc3)[C@H](C)O2)[C@H](C)[C@@H](O[C@@H]2O[C@H](C)C[C@H](N(C)C)[C@H]2O)[C@](C)(O)C[C@H]1C', 4),
  ('CCCN1C[C@H](C)[C@@H](O)[C@](C)(O)[C@@H](CC)OC(=O)[C@H](C)[C@@H](O[C@H]2C[C@@](C)(OC)[C@](O)(CNc3nc(OC)cc(OC)n3)[C@H](C)O2)[C@H](C)[C@@H](O[C@@H]2O[C@H](C)C[C@H](N(C)C)[C@H]2O)[C@](C)(O)C[C@H]1C', 2),
  ('CCCN1C[C@H](C)[C@@H](O)[C@](C)(O)[C@@H](CC)OC(=O)[C@H](C)[C@@H](O[C@H]2C[C@@](C)(OC)[C@](O)(CNC(CC)C(=O)O)[C@H](C)O2)[C@H](C)[C@@H](O[C@@H]2O[C@H](C)C[C@H](N(C)C)[C@H]2O)[C@](C)(O)C[C@H]1C (stereo partly shown)', 0.25);
